Below: a set of entries, each annotated with reported interaction score.
Target: T1, 4H2124-AA
T1 chain: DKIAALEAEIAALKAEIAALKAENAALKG
Assay: two-hybrid library CCmax;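 note: natural log of median RNA to DNA barcode read ratio; higher means stronger binding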
Conditions: mean of both orientations
Observable: interaction score

Binder	Data value
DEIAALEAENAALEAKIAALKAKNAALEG [4H175-AA]	-1.39
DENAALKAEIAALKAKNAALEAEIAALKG [4H1650-AA]	-1.42
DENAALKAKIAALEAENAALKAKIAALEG [4H1821-AA]	-1.19
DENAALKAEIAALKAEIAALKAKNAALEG [4H1615-AA]	-1.09
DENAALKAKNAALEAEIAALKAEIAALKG [4H1930-AA]	-1.14
DENAALKAKIAALEAKIAALEAENAALKG [4H1828-AA]	-1.65

Data provenance is paper PMC10397247.
